Values were extracted from PubChem BioAssay AID1963826.

Tested on: 926638-142-R-J1-PDC complex spheroid viability;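 also: spheroids exposed to drugs for one week before readout; percent viability relative to DMSO vehicle control wells set as 100%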
Test: Anticancer human tumor 926638-142-R-J1-PDC patient-derived endometrial carcinoma cell line growth inhibition [POLQ]
Settings: second compound 3.16 µM; first compound 0.1 µM; stronger effect = lower value
property: viability, T/C

# compound, subject-of-test, result
data = [
    ("C#Cc1c(F)ccc2cc(O)cc(-c3ncc4c(N5CC6CCC(C5)N6)nc(OCC56CCCN5CC(F)C6)nc4c3F)c12 (stereo not given) + Nc1ccc(C#CCN(C(=O)Cc2ncc(C(F)(F)F)cc2C(F)(F)F)c2ccc(F)cc2)nn1", "926638-142-R-J1-PDC complex spheroid viability", "93.4%"),
    ("CC1COCCN1c1cc(-c2ccnn2C)c2ccnc(-c3ccn[nH]3)c2n1 (stereo not given) + COC1C(OC(N)=O)C(O)C(Oc2ccc3c(O)c(NC(=O)c4ccc(O)c(CC=C(C)C)c4)c(=O)oc3c2C)OC1(C)C", "926638-142-R-J1-PDC complex spheroid viability", "80.3%"),
    ("CCCS(=O)(=O)Nc1ccc(F)c(C(=O)c2c[nH]c3ncc(-c4ccc(Cl)cc4)cc23)c1F + Nc1ccc(C#CCN(C(=O)Cc2ncc(C(F)(F)F)cc2C(F)(F)F)c2ccc(F)cc2)nn1", "926638-142-R-J1-PDC complex spheroid viability", "83.6%"),
    ("C=CC(=O)N1CCN(c2nc(=O)n(-c3c(C)ccnc3C(C)C)c3nc(-c4c(O)cccc4F)c(F)cc23)C(C)C1 (stereo not given) + COC1C(OC(N)=O)C(O)C(Oc2ccc3c(O)c(NC(=O)c4ccc(O)c(CC=C(C)C)c4)c(=O)oc3c2C)OC1(C)C", "926638-142-R-J1-PDC complex spheroid viability", "87.7%"),
    ("CC(C)n1c(=O)n(C)c2cnc3cc(F)c(-c4ccc(OCCCN5CCCCC5)nc4)cc3c21 + Nc1ccc(C#CCN(C(=O)Cc2ncc(C(F)(F)F)cc2C(F)(F)F)c2ccc(F)cc2)nn1", "926638-142-R-J1-PDC complex spheroid viability", "84.7%"),
]
